# Test system: MOLT-4 leukemia
# TEST NAME: NCI tumour cell line growth inhibition, 48 h

{"SMILES CODE": "Cc1ccc2cnc(N)c(C#Cc3cncc(C(=O)Nc4ccc(CN5CCN(C)CC5)c(C(F)(F)F)c4)c3)c2c1", "GI50": "205 nM"}
{"SMILES CODE": "C=C(C)[C@@H]1CC[C@]2(C)[C@H](CC=C3[C@@H]4[C@H](C)[C@@H](C)CC[C@]4(CO)CC[C@]32C)[C@@]1(C)CCCN", "GI50": "1350 nM"}
{"SMILES CODE": "O=C(c1ccccc1)c1ccccc1C(=O)c1ccccc1", "GI50": "32700 nM"}

* * *

# System: MDA-N
# TEST NAME: NCI tumour cell line growth inhibition, 48 h
Listed molecules paired with reported TGI

{"MOLECULE": "O=C(/C=C/c1ccccc1)CCc1c(O)c2ccccc2oc1=O", "TGI": "> 100 µM"}
{"MOLECULE": "Cc1cccc2c1C(=O)[C@@](C)([C@]1(C)Nc3cccc(C)c3C1=O)N2", "TGI": "> 100 µM"}
{"MOLECULE": "Cc1ccc([N+](=O)[O-])cc1NC(=O)C(=O)C1CCC2=C(Sc3ccccc3N2)C1=O (stereo not drawn)", "TGI": "> 100 µM"}

* * *

Listed compounds paired with reported TGI
# Tested on: DU-145 prostate
# TEST NAME: NCI tumour cell line growth inhibition, 48 h

{"COMPOUND": "COc1ccc(C(C)NNC(=O)c2ccncc2)cc1F (stereo unspecified)", "TGI": "> 100 µM"}
{"COMPOUND": "O=C(/C=C/c1ccccc1)CCc1c(O)c2ccccc2oc1=O", "TGI": "> 100 µM"}
{"COMPOUND": "c1cc2ccc1CNCCN1CCNCc3ccc(cc3)Oc3ccc(cc3)CNCCN(CCNCc3ccc(cc3)O2)CCNCc2ccc(cc2)Oc2ccc(cc2)CNCC1", "TGI": "2.83 µM"}
{"COMPOUND": "C/C(=C\\c1ccccc1)C(=O)NCc1ccc(C(=O)NCCc2c[nH]c3ccccc23)cc1", "TGI": "> 100 µM"}
{"COMPOUND": "COc1ccc(S(=O)(=O)n2c3ccccc3n3ncc(-c4nnc(C)o4)c23)cc1", "TGI": "> 75.3 µM"}
{"COMPOUND": "CC1(C)CC2(C)OC(=N)C1(C#N)C2(C#N)C#N (stereo unspecified)", "TGI": "27.7 µM"}
{"COMPOUND": "Cc1[nH]n(-c2ccccc2)c(=O)c1C(=O)c1ccccc1", "TGI": "> 25 µM"}
{"COMPOUND": "Cc1cc(Cl)ccc1NC(=O)NC(C)(C)COC(=O)Nc1cccc(Cl)c1", "TGI": "> 100 µM"}
{"COMPOUND": "Cc1nc2sc(C(=O)Nc3cccc(Cl)c3C)c(N)c2cc1C(C)O (stereo unspecified)", "TGI": "> 86.5 µM"}
{"COMPOUND": "O=c1[nH]cnc2nc(-c3ccc(N(CCCl)CCCl)cc3)[nH]c12", "TGI": "> 100 µM"}
{"COMPOUND": "COc1cc(-c2[o+]c3cc(O)cc(OC4OC(CO)C(O)C(O)C4O)c3cc2OC2OC(CO)C(O)C(O)C2O)cc(OC)c1O (stereo unspecified)", "TGI": "> 100 µM"}
{"COMPOUND": "Cc1cc(O)c2c(c1)C(=O)C(c1c(C)cc3c(c1O)C(=O)C1OC1C3=O)=CC2=O (stereo unspecified)", "TGI": "> 47.3 µM"}
{"COMPOUND": "COC(=O)c1c(C#C[Si](C)(C)C)c(C#C[Si](C)(C)C)c(C#C[Si](C)(C)C)c(C#C[Si](C)(C)C)c1C(=O)OC", "TGI": "> 100 µM"}
{"COMPOUND": "Cc1nnc2sc(-c3ccc([N+](=O)[O-])o3)nn12", "TGI": "29.8 µM"}
{"COMPOUND": "COC(=O)C1[C@H](C(=O)OC)C1(Br)CBr (stereo partly specified)", "TGI": "> 100 µM"}
{"COMPOUND": "C=C1C(=O)O[C@H]2C/C(C=O)=C\\[C@H]3O[C@H]3/C(COC(=O)C(C)C)=C/CC12 (stereo partly specified)", "TGI": "25.2 µM"}
